Below, each entry is listed with its recorded Test D rating (disease control).
- Tested on: Septoria tritici
- Assay info: Test D: wheat leaf blotch, preventive spray on wheat seedlings
- Type: in vivo
- Run parameters: 40 ppm test suspension sprayed to run-off on wheat seedlings, inoculated the following day; 100 = 100% disease control, 0 = no control; triplicate, averaged
Could you give me the number in %? Just the number is fine.

INPUT: Identify measured Test D rating (disease control) corresponding to Cc1nc(Br)n(Nc2ccc(F)cc2F)c1-c1ccc(F)cc1F [Compound 10]
OUTPUT: 100

###

- Tested on: Puccinia recondite f. sp. tritici
- Assay info: Test E: wheat leaf rust, spray after inoculation of wheat seedlings
- Assay type: in vivo
- Run parameters: 40 ppm test suspension sprayed on wheat seedlings after inoculation (24 h incubation, then 2 days in growth chamber); 100 = 100% disease control, 0 = no control; triplicate, averaged
- Protocol: General protocol for preparing test suspensions for Tests A-G: the test compounds were first dissolved in acetone in an amount equal to 3% of the final volume and then suspended at the desired concentration (in ppm) in acetone and purified water (50/50 mix by volume) containing 250 ppm of the surfactant Trem® 014 (polyhydric alcohol esters). The resulting test suspensions were then used in Tests A-G. Each test was conducted in triplicate, and the results were averaged. […]
Endpoint: Test E rating (disease control) (%)
The answer is to be given in %; state only the numeric part.

| Molecule | Test E rating (disease control) [%] |
| --- | --- |
| Cc1nc(Br)n(Nc2ccc(F)cc2F)c1-c1ccc(F)cc1F [Compound 10] | 7 |
| Cc1nc(Br)n(Nc2ccc(F)cc2Cl)c1-c1ccc(F)cc1F [Compound 2] | 30 |
| Fc1ccc(Nn2c(Br)nc(Br)c2-c2ccc(Cl)cc2Cl)c(F)c1 [Compound 14] | 0 |
| Fc1ccc(-c2c(C(Cl)Cl)nc(Cl)n2Nc2ccc(F)cc2Cl)c(F)c1 [Compound 12] | 0 |
| Fc1ccc(-c2c(CCl)nc(Cl)n2Nc2ccc(F)cc2Cl)c(F)c1 [Compound 13] | 0 |
| Cc1ncn(Nc2ccc(Cl)cc2Cl)c1-c1ccc(F)cc1F [Compound 7] | 0 |
| Cc1nc(Br)n(Nc2c(Cl)cc(Cl)cc2Br)c1-c1ccc(F)cc1F [Compound 8] | 19 |
| Fc1cc(F)c(Nn2c(Cl)nc(Cl)c2-c2ccc(Cl)cc2Cl)c(Cl)c1 [Compound 11] | 0 |
| Cc1ncn(Nc2ccc(F)cc2F)c1-c1ccc(F)cc1F [Compound 9] | 36 |
| Cc1ncn(Nc2ccc(Cl)cc2Cl)c1-c1ccc(F)cc1 [Compound 3] | 0 |

// next entry
INPUT: Supply reported Test E rating (disease control) belonging to this molecule: Cc1nc(Br)n(Nc2ccc(Cl)cc2Cl)c1-c1ccc(Cl)cc1 [Compound 5]
OUTPUT: 0

###

Each entry below carries its reported Test D rating (disease control).
- Test system: Septoria tritici
- Assay info: Test D: wheat leaf blotch, preventive spray on wheat seedlings
- Assay type: in vivo
- Run parameters: 40 ppm test suspension sprayed to run-off on wheat seedlings, inoculated the following day; 100 = 100% disease control, 0 = no control; triplicate, averaged
Field: numeric (%). Do not append units.

| Structure string | Endpoint | Numeric value |
| --- | --- | --- |
| Cc1nc(Br)n(Nc2ccc(Cl)cc2Cl)c1-c1ccc(F)cc1 | Test D rating (disease control) | 93 |
| Cc1ncn(Nc2ccc(F)cc2Cl)c1-c1ccc(F)cc1F | Test D rating (disease control) | 92 |
| Cc1nc(Br)n(Nc2ccc(F)cc2Cl)c1-c1ccc(F)cc1F | Test D rating (disease control) | 100 |

Now consider the entry below.
INPUT: Input "Cc1nc(Br)n(Nc2c(Cl)cc(Cl)cc2Br)c1-c1ccc(F)cc1F" , output reported Test D rating (disease control).
OUTPUT: 100

###

- System: Botrytis cinerea
- Assay info: Test A: tomato Botrytis, preventive spray on tomato seedlings
- Format: in vivo
- Run parameters: 40 ppm test suspension sprayed to run-off on tomato seedlings, inoculated the following day; 100 = 100% disease control, 0 = no control; triplicate, averaged
Form field: Test A rating (disease control) (one value per entry).
Answer with a number only, understood to be in %.

Consider the following illustrative entries.
| Molecule | Numeric value |
| --- | --- |
| Fc1cc(F)c(Nn2c(Cl)nc(Cl)c2-c2ccc(Cl)cc2Cl)c(Cl)c1 [Compound 11] | 0 |
| Cc1nc(Br)n(Nc2c(Cl)cc(Cl)cc2Br)c1-c1ccc(F)cc1F [Compound 8] | 99 |
| Cc1ncn(Nc2ccc(F)cc2F)c1-c1ccc(F)cc1F [Compound 9] | 87 |

INPUT: Fill in reported Test A rating (disease control) for this entry: Fc1ccc(-c2c(CCl)nc(Cl)n2Nc2ccc(F)cc2Cl)c(F)c1 [Compound 13]
OUTPUT: 66

INPUT: Return the recorded Test A rating (disease control) value; entry: Fc1ccc(Nn2c(Br)nc(Br)c2-c2ccc(Cl)cc2Cl)c(F)c1 [Compound 14]
OUTPUT: 0

###

- System: Septoria tritici
- Assay info: Test D: wheat leaf blotch, preventive spray on wheat seedlings
- Format: in vivo
- Run parameters: 40 ppm test suspension sprayed to run-off on wheat seedlings, inoculated the following day; 100 = 100% disease control, 0 = no control; triplicate, averaged
Endpoint: Test D rating (disease control) (%)
Express it in %; write the number only.

INPUT: Check the records and state Test D rating (disease control) for Fc1ccc(Nn2c(Br)nc(Br)c2-c2ccc(Cl)cc2Cl)c(F)c1 [Compound 14]
OUTPUT: 0

INPUT: Identify the reported Test D rating (disease control) for the following entry. Fc1ccc(-c2c(CCl)nc(Cl)n2Nc2ccc(F)cc2Cl)c(F)c1 [Compound 13]
OUTPUT: 97

INPUT: Identify Test D rating (disease control) associated with the molecule Fc1cc(F)c(Nn2c(Cl)nc(Cl)c2-c2ccc(Cl)cc2Cl)c(Cl)c1 [Compound 11]
OUTPUT: 0

INPUT: Complete the entry with Test D rating (disease control) for Cc1ncn(Nc2ccc(Cl)cc2Cl)c1-c1ccc(F)cc1F [Compound 7]
OUTPUT: 100

INPUT: Please look at this molecule and report its Test D rating (disease control): Cc1nc(Br)n(Nc2ccc(Cl)cc2Cl)c1-c1ccc(Cl)cc1 [Compound 5]
OUTPUT: 99

INPUT: Answer with reported Test D rating (disease control) of Cc1ncn(Nc2ccc(Cl)cc2Cl)c1-c1ccc(F)cc1 [Compound 3]
OUTPUT: 99

INPUT: Read the entry Cc1ncn(Nc2ccc(F)cc2F)c1-c1ccc(F)cc1F [Compound 9] and write its reported Test D rating (disease control).
OUTPUT: 79

INPUT: Return value of Test D rating (disease control) for input Fc1ccc(-c2c(C(Cl)Cl)nc(Cl)n2Nc2ccc(F)cc2Cl)c(F)c1 [Compound 12] , no commentary.
OUTPUT: 89

###

- Tested on: Botrytis cinerea
- Assay info: Test A: tomato Botrytis, preventive spray on tomato seedlings
- Format: in vivo
- Run parameters: 40 ppm test suspension sprayed to run-off on tomato seedlings, inoculated the following day; 100 = 100% disease control, 0 = no control; triplicate, averaged
Endpoint: Test A rating (disease control) (%)
Answer format: numeric, % implied, no suffix.

| Structure string | Test A rating (disease control) (%) |
| --- | --- |
| Cc1nc(Br)n(Nc2ccc(Cl)cc2Cl)c1-c1ccc(F)cc1 | 16 |

Then there is this molecule:
INPUT: Supply reported Test A rating (disease control) belonging to this molecule: "Cc1nc(Br)n(Nc2ccc(F)cc2Cl)c1-c1ccc(F)cc1F"
OUTPUT: 99

###

- System: Botrytis cinerea
- Assay info: Test A: tomato Botrytis, preventive spray on tomato seedlings
- Format: in vivo
- Run parameters: 40 ppm test suspension sprayed to run-off on tomato seedlings, inoculated the following day; 100 = 100% disease control, 0 = no control; triplicate, averaged
Endpoint: Test A rating (disease control) (%)
Write down the numeric answer in % and omit the unit.

INPUT: Report measured Test A rating (disease control); entry is "Cc1ncn(Nc2ccc(F)cc2Cl)c1-c1ccc(F)cc1F"
OUTPUT: 100

###

- Tested on: Botrytis cinerea
- Assay info: Test A: tomato Botrytis, preventive spray on tomato seedlings
- Format: in vivo
- Run parameters: 40 ppm test suspension sprayed to run-off on tomato seedlings, inoculated the following day; 100 = 100% disease control, 0 = no control; triplicate, averaged
- Procedure: General protocol for preparing test suspensions for Tests A-G: the test compounds were first dissolved in acetone in an amount equal to 3% of the final volume and then suspended at the desired concentration (in ppm) in acetone and purified water (50/50 mix by volume) containing 250 ppm of the surfactant Trem® 014 (polyhydric alcohol esters). The resulting test suspensions were then used in Tests A-G. Each test was conducted in triplicate, and the results were averaged. […]
// reported Test A rating (disease control) for each item listed
Quick reminder: number only, in %, skip the unit.

INPUT: Provide only the value of recorded Test A rating (disease control) for "Cc1ncn(Nc2ccc(Cl)cc2Cl)c1-c1ccc(F)cc1F"
OUTPUT: 100

INPUT: Annotate the molecule "Cc1nc(Br)n(Nc2ccc(F)cc2F)c1-c1ccc(F)cc1F" with its measured Test A rating (disease control).
OUTPUT: 99

INPUT: Look up and state reported Test A rating (disease control) for "Fc1ccc(-c2c(C(Cl)Cl)nc(Cl)n2Nc2ccc(F)cc2Cl)c(F)c1"
OUTPUT: 0
